# assayed system: T1, human soluble urokinase plasminogen activator receptor (suPAR) (human, UniProt Q03405 23-303, limits assumed)
# T1 construct: Target antigen of the off-rate screen; also called hsuPAR; human suPAR
# T1 sequence (Q03405 23-303 limits assumed): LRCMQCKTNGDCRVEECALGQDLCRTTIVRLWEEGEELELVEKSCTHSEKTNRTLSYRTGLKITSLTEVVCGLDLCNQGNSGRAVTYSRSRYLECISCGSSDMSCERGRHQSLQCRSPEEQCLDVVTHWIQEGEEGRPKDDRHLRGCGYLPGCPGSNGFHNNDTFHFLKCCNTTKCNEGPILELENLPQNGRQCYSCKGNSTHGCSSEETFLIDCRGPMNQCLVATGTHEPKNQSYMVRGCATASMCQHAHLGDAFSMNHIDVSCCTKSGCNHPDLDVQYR
# protocol description: off-rate (kdis) screen of scFv clones, biosensor (Octet)
readout name: koff (s⁻¹)
# value in s⁻¹; strip the unit string

Input: So what's the measured koff for this one? suPAR_DB01_C08 (scFv, V domains shown, screened as scFv) VH: QVQLVQSGAEVKKPGASVKVSCKASGYTFTGYYMHWVRQAPGQGLEWMGWIDHENGNTIYAQKFQGRVTMTRDTSTSTVYMELSSLRSEDTAVYYCARGYDVDWFVYWGQGTLVTVSS VL: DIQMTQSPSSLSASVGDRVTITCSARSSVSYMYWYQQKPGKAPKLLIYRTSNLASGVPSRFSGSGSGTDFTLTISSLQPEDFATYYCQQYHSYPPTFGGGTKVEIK
Output: 0.0013

Input: Please report the recorded koff for suPAR_DB01_A10 (scFv, V domains shown, screened as scFv) VH: QVQLVQSGAEVKKPGASVKVSCKASGYTFSNYYMHWVRQAPGQGLEWMGWIDHENGNTIYDQKFQGRVTMTRDTSTSTVYMELSSLRSEDTAVYYCARGYDVDWFVYWGQGTLVTVSS VL: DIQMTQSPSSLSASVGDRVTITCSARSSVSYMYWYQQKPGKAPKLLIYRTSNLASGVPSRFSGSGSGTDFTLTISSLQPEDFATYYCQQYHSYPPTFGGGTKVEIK .
Output: 0.00194

Origin of measurements: patent US20250215104A1
